Data provenance is paper PMC4552634.

Readings of % Inhibition for the listed molecules
# System: P. falciparum stage V gametocytes
# Parameters: BacTiter-Glo ATP luminescence viability of purified stage V gametocytes in 384-well plates, per cent inhibition versus DMSO
# CONDITION_PARAMETERS: 48 h, 5 µM; inhibitor
Among all 13,000 compounds or so, about 3,200 (25%) showed an effect of 50% or more. The list shows a part of the results.
Kindly provide the numeric value in % only, without the unit symbol.

// query Requested read-out: % Inhibition. Entry: `CN1CCN(CCCN(Cc2cccc(-c3cccc(CNC4CCCC4)c3)c2)C(=O)CCC2CCCC2)CC1`
// result 119.1

// query Please give the result for `Clc1cc(Br)ccc1-c1ccc(CNCC2CCNCC2)o1` too.
// result 29.69

// query What about `CCCCCCN1CCC(NCc2cccc(C#N)c2)CC1` ?
// result -17.05

// query And `CN1CCN(CCCN(Cc2cccc(-c3ccc(CNC4CCCC4)cc3)c2)C(=O)CCC2CCCC2)CC1` ?
// result 98.64

// query Let us now turn to O=S(=O)(NC1CCN(c2ccnc3cc(Cl)ccc23)C1)c1ccc(F)cc1 (stereo not drawn)
// result 5.841

Continuing:
// query Fill blank: measured % Inhibition of the molecule `COc1cccc(CNc2noc(-c3c(-c4ccccc4)noc3C)n2)c1OC` is ____.
// result 10.03

// query And then `CCCCCCN1CCC(NCc2ccc(CN(C)C)cc2)CC1` , what is it?
// result 16.26

// query Also `FC(F)(F)c1cccc(CNC2CCN(CC3CCCCC3)CC2)c1` ?
// result -52.78

// query Another molecule to check: CC(CNc1nc(NCC(c2ccccc2)c2ccccc2)c2[nH]cnc2n1)c1ccccc1 (stereo not drawn)
// result -14.76
